Target: T1, Dmp53 (Drosophila melanogaster, UniProt Q9N6D8 1-385)
T1 sequence: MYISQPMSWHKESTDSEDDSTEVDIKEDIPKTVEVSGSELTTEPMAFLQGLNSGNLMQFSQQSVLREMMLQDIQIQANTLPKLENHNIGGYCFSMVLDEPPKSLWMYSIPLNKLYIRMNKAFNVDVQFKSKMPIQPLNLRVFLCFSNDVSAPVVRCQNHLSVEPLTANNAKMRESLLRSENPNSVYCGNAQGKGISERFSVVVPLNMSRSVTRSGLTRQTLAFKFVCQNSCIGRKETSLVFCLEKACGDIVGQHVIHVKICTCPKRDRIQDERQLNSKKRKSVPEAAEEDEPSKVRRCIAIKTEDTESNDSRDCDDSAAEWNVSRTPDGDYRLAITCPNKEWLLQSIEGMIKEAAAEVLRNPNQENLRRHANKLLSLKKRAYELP
Experiment: fluorescence anisotropy competition titration; 25 mM sodium phosphate (purification buffer pH 7.2), 225 mM NaCl, 10% v/v glycerol, 5 mM DTT, 0.2 mg/mL BSA, 22 C
Conditions: protein: recombinant; tags: N-terminal 6xHis-lipoyl-TEV tag, cleaved; chain copies: 4
PARAMETER MEASURED: pKd
Give bare numbers, as −log10 of the molar value.

What the record says about Ref competitor (dsDNA) DNA 1: CGCGGACATGTCCGGACATGTCCCGC DNA 2: GCGGGACATGTCCGGACATGTCCGCG : pKd is 7.56
